Cited source: ChEMBL document CHEMBL4402517

test: Genotoxicity in Salmonella typhimurium TA1535 harboring pSK1002 assessed as umu gene induction at 0.125 mg/ml in presence of Sprague-Dawley rat liver S9 fraction metabolic activation by SOS/umu assay relative to control; assay type: toxicity, subcellular; conditions: salmonella enterica subsp. enterica serovar typhimurium, read-out: FC
Parameter: fold induction at 0.125 mg/ml. Scope: all listed entries.
TEST READOUT: fold induction at 0.125 mg/ml

sample_smiles=O=C(CCN1CCN(c2ccc(Cl)cc2)CC1)c1ccc(O)cc1 assay_value=0.84
sample_smiles=O=C(CCN1CCN(c2ccc(C(F)(F)F)cc2)CC1)c1ccc(O)cc1 assay_value=0.63

* * *

test: Genotoxicity in Salmonella typhimurium TA1535 harboring pSK1002 assessed as umu gene induction at 1 mg/ml in absence of Sprague-Dawley rat liver S9 fraction metabolic activation by SOS/umu assay relative to control; type: toxicity; conditions: salmonella enterica subsp. enterica serovar typhimurium, read-out: FC
Parameter: fold induction at 1 mg/ml. Scope: all listed entries.
TEST READOUT: fold induction at 1 mg/ml

sample_smiles=O=C(CCN1CCN(c2ccc(Cl)cc2)CC1)c1ccc(O)cc1 test_readout="fold induction at 1 mg/ml" assay_value=0.12
sample_smiles=O=C(CCN1CCN(c2ccc(C(F)(F)F)cc2)CC1)c1ccc(O)cc1 test_readout="fold induction at 1 mg/ml" assay_value=0.16

* * *

experiment: Selectivity index, ratio of IC50 for African green monkey Vero cells to IC50 for Trypanosoma cruzi TINF/CH/1956/Tulahuen;DTU 6 trypomastigote forms; format: toxicity; conditions: read-out: Selectivity Index
Parameter: selectivity ratio. Scope: all listed entries.
TEST READOUT: selectivity ratio

sample_smiles=COc1ccc(C(=O)CCNc2ccc(F)cc2)cc1 modifier_sign== assay_value=48.8
sample_smiles=O=C(CCN1CCN(c2ccc(C(F)(F)F)cc2)CC1)c1ccc(O)cc1 modifier_sign== assay_value=45.7
sample_smiles=COc1ccc(C(=O)CCNc2ccc(Cl)cc2)cc1 modifier_sign== assay_value=10.2
sample_smiles=O=C(Cn1ccnc1[N+](=O)[O-])NCc1ccccc1 modifier_sign=> assay_value=29.9
sample_smiles=O=C(CCN1CCN(c2ccc(Cl)cc2)CC1)c1ccc(O)cc1 modifier_sign== assay_value=49.6
sample_smiles=COc1ccc(C(=O)CCNCCc2ccc(C(F)(F)F)cc2)cc1 modifier_sign== assay_value=26.1

* * *

assay: Selectivity index, ratio of IC50 for African green monkey Vero cells to IC50 for Trypanosoma cruzi TINF/CH/1956/Tulahuen;DTU 6 amastigote forms; assay type: toxicity; conditions: read-out: Selectivity Index
TEST READOUT: selectivity ratio

sample_smiles=COc1ccc(C(=O)CCNCCc2ccc(C(F)(F)F)cc2)cc1 test_readout="selectivity ratio" modifier_sign== assay_value=27.7
sample_smiles=COc1ccc(C(=O)CCNc2ccc(F)cc2)cc1 test_readout="selectivity ratio" modifier_sign== assay_value=20.1
sample_smiles=O=C(CCN1CCN(c2ccc(Cl)cc2)CC1)c1ccc(O)cc1 test_readout="selectivity ratio" modifier_sign== assay_value=34.5
sample_smiles=O=C(Cn1ccnc1[N+](=O)[O-])NCc1ccccc1 test_readout="selectivity ratio" modifier_sign=> assay_value=51.7
sample_smiles=O=C(CCN1CCN(c2ccc(C(F)(F)F)cc2)CC1)c1ccc(O)cc1 test_readout="selectivity ratio" modifier_sign== assay_value=27.4
sample_smiles=COc1ccc(C(=O)CCNc2ccc(Cl)cc2)cc1 test_readout="selectivity ratio" modifier_sign== assay_value=5.5

* * *

test system: Trypanosoma cruzi; experiment: Antitrypanosomal activity against Trypanosoma cruzi TINF/CH/1956/Tulahuen;DTU 6 amastigote forms measured after 72 hrs by Giemsa staining based assay; format: functional, organism-based; conditions: TINF/CH/1956/Tulahuen;DTU 6, 72 h
pIC50: −log10 of the molar value.
TEST READOUT: pIC50

sample_smiles=O=C(CCN1CCN(c2ccc(Cl)cc2)CC1)c1ccc(O)cc1 assay_value=5.52
sample_smiles=COc1ccc(C(=O)CCNCCc2ccc(C(F)(F)F)cc2)cc1 assay_value=5.48
sample_smiles=COc1ccc(C(=O)CCNc2ccc(F)cc2)cc1 assay_value=5.17
sample_smiles=O=C(Cn1ccnc1[N+](=O)[O-])NCc1ccccc1 assay_value=5.41
sample_smiles=COc1ccc(C(=O)CCNc2ccc(Cl)cc2)cc1 assay_value=4.58
sample_smiles=O=C(CCN1CCN(c2ccc(C(F)(F)F)cc2)CC1)c1ccc(O)cc1 assay_value=5.41

* * *

Parameter: fold induction at 1 mg/ml. Scope: all listed entries.
assay: Genotoxicity in Salmonella typhimurium TA1535 harboring pSK1002 assessed as umu gene induction at 1 mg/ml in presence of Sprague-Dawley rat liver S9 fraction metabolic activation by SOS/umu assay relative to control; format: toxicity, subcellular; conditions: salmonella enterica subsp. enterica serovar typhimurium, read-out: FC
TEST READOUT: fold induction at 1 mg/ml

sample_smiles=O=C(CCN1CCN(c2ccc(Cl)cc2)CC1)c1ccc(O)cc1 assay_value=0.38
sample_smiles=O=C(CCN1CCN(c2ccc(C(F)(F)F)cc2)CC1)c1ccc(O)cc1 assay_value=0.37

* * *

experiment: Genotoxicity in Salmonella typhimurium TA1535 harboring pSK1002 assessed as survival at 0.031 mg/ml in presence of Sprague-Dawley rat liver S9 fraction metabolic activation by SOS/umu assay relative to control; assay type: toxicity, subcellular; conditions: salmonella enterica subsp. enterica serovar typhimurium, read-out: Survival
Parameter: viability at 0.031 mg/ml. Scope: all listed entries.
TEST READOUT: viability at 0.031 mg/ml (%)

sample_smiles=O=C(CCN1CCN(c2ccc(C(F)(F)F)cc2)CC1)c1ccc(O)cc1 assay_value=107
sample_smiles=O=C(CCN1CCN(c2ccc(Cl)cc2)CC1)c1ccc(O)cc1 assay_value=102

* * *

Parameter: fold induction at 0.031 mg/ml. Scope: all listed entries.
assay: Genotoxicity in Salmonella typhimurium TA1535 harboring pSK1002 assessed as umu gene induction at 0.031 mg/ml in absence of Sprague-Dawley rat liver S9 fraction metabolic activation by SOS/umu assay relative to control; type: toxicity; settings: salmonella enterica subsp. enterica serovar typhimurium, read-out: FC
TEST READOUT: fold induction at 0.031 mg/ml

sample_smiles=O=C(CCN1CCN(c2ccc(Cl)cc2)CC1)c1ccc(O)cc1 test_readout="fold induction at 0.031 mg/ml" assay_value=0.7
sample_smiles=O=C(CCN1CCN(c2ccc(C(F)(F)F)cc2)CC1)c1ccc(O)cc1 test_readout="fold induction at 0.031 mg/ml" assay_value=0.66

* * *

Parameter: selectivity ratio. Scope: all listed entries.
experiment: Selectivity index, ratio of IC50 for African green monkey Vero cells to IC50 for Trypanosoma cruzi IRHOD/CO/2008/SN3;DTU 1 trypomastigote forms; type: toxicity; conditions: read-out: Selectivity Index
TEST READOUT: selectivity ratio

compound="O=C(Cn1ccnc1[N+](=O)[O-])NCc1ccccc1 [BENZNIDAZOLE]" modifier_sign=> assay_value=6
compound=COc1ccc(C(=O)CCNc2ccc(F)cc2)cc1 modifier_sign== assay_value=39.4
compound=COc1ccc(C(=O)CCNCCc2ccc(C(F)(F)F)cc2)cc1 modifier_sign== assay_value=16.7
compound=O=C(CCN1CCN(c2ccc(Cl)cc2)CC1)c1ccc(O)cc1 modifier_sign== assay_value=50.9
compound=O=C(CCN1CCN(c2ccc(C(F)(F)F)cc2)CC1)c1ccc(O)cc1 modifier_sign== assay_value=51
compound=COc1ccc(C(=O)CCNc2ccc(Cl)cc2)cc1 modifier_sign== assay_value=2.3

* * *

assay: Genotoxicity in Salmonella typhimurium TA1535 harboring pSK1002 assessed as umu gene induction at 0.008 mg/ml in presence of Sprague-Dawley rat liver S9 fraction metabolic activation by SOS/umu assay relative to control; format: toxicity, subcellular; details: salmonella enterica subsp. enterica serovar typhimurium, read-out: FC
TEST READOUT: fold induction at 0.008 mg/ml

sample_smiles=O=C(CCN1CCN(c2ccc(C(F)(F)F)cc2)CC1)c1ccc(O)cc1 assay_value=0.83
sample_smiles=O=C(CCN1CCN(c2ccc(Cl)cc2)CC1)c1ccc(O)cc1 assay_value=0.77

* * *

assay: Genotoxicity in Salmonella typhimurium TA1535 harboring pSK1002 assessed as survival at 0.002 mg/ml in absence of Sprague-Dawley rat liver S9 fraction metabolic activation by SOS/umu assay relative to control; assay type: toxicity; conditions: salmonella enterica subsp. enterica serovar typhimurium, read-out: Survival
TEST READOUT: viability at 0.002 mg/ml (%)

sample_smiles=O=C(CCN1CCN(c2ccc(C(F)(F)F)cc2)CC1)c1ccc(O)cc1 assay_value=116
sample_smiles=O=C(CCN1CCN(c2ccc(Cl)cc2)CC1)c1ccc(O)cc1 assay_value=109

* * *

Parameter: viability at 0.001 mg/ml. Scope: all listed entries.
test: Genotoxicity in Salmonella typhimurium TA1535 harboring pSK1002 assessed as survival at 0.001 mg/ml in presence of Sprague-Dawley rat liver S9 fraction metabolic activation by SOS/umu assay relative to control; type: toxicity, subcellular; details: salmonella enterica subsp. enterica serovar typhimurium, read-out: Survival
TEST READOUT: viability at 0.001 mg/ml (%)

sample_smiles=O=C(CCN1CCN(c2ccc(Cl)cc2)CC1)c1ccc(O)cc1 assay_value=106
sample_smiles=O=C(CCN1CCN(c2ccc(C(F)(F)F)cc2)CC1)c1ccc(O)cc1 assay_value=106
